target: 17β-HSD1 (Homo sapiens, UniProt P14061); construct: endogenous in cells; host or cells: T-47D human breast cancer cells (ATCC), whole cells; test: 17β-HSD1 inhibition assay: transformation of [3H]-E1 to [3H]-E2 in whole T-47D cells; type: cell-based; conditions: T47D
Sequence (P14061 whole entry): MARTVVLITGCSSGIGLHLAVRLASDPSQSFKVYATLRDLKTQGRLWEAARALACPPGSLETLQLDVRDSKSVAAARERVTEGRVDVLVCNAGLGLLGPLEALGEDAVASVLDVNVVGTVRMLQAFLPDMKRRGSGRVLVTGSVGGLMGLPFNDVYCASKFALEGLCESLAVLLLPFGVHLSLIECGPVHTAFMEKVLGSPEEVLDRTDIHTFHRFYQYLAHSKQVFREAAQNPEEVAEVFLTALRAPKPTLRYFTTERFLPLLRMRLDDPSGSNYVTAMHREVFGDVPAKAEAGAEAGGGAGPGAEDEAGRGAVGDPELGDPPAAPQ
Reported inhibition at 0.1 µM values for the following molecules.

>  <molecule>
C[C@]12CCC3c4ccc(O)cc4CCC3C1C[C@@H](CCCBr)[C@@H]2O (stereo partly shown)

>  <inhibition at 0.1 µM / %>
43.8

$$$$
>  <molecule>
C[C@]12CC[C@@H]3c4ccc(Oc5cccc(C(N)=O)c5)cc4CC[C@H]3[C@@H]1CCC2=O

>  <inhibition at 0.1 µM / %>
29.1

$$$$
>  <molecule>
C[C@]12CC[C@@H]3c4ccc(Oc5cccc(C(N)=O)c5)cc4CC[C@H]3[C@@H]1CC[C@@H]2O

>  <inhibition at 0.1 µM / %>
40

$$$$
>  <molecule>
C[C@]12CC[C@@H]3c4ccc(Oc5cccc(C(N)=O)c5)cc4CC[C@H]3[C@@H]1C[C@@H](CCCBr)[C@@H]2O

>  <inhibition at 0.1 µM / %>
28.2

$$$$
